This section presents molecules with their documented pIC50 values.
- assay_system: human PD-1 (Jurkat-PD-1 cells) / PE-labeled human PD-L1-Ig (Homo sapiens)
- Construct: expressed in transfected cells; host or cells: Jurkat cell line over-expressing human PD-1
- assay_remarks: Jurkat-PD-1 Cell Binding High-Content Screening Assay (CBA); Jurkat hPD1-PDL1 assay
- condition_parameters: Jurkat cell line over-expressing human PD-1; PE-labeled PD-L1-Ig 20 nM final; compound incubated 2 hours at 37° C.; read-out: Jurkat HPD1-PDL1 IC50
Positions of bridges follow the written chain, without caps; N, C: chain ends. Non-standard residues stand in square brackets, D forms with d. Residues, ends and D or L forms follow the SMILES beside them. Bip = N[C@@H](Cc1ccc(-c2ccccc2)cc1)C(=O)O; NMeA = CN[C@@H](C)C(=O)O; Sar = CNCC(=O)O
# pIC50 is unitless: minus log10 of the molar concentration; print number only

Find the measured pIC50 of CC(C)C[C@@H]1NC(=O)[C@H](C(C)C)NC(=O)CN(C)C(=O)[C@H](C)N(C)C(=O)[C@H](C(C)C)NC(=O)[C@H](Cc2ccc(-c3ccccc3)cc2)NC(=O)[C@H](Cc2ccc(O)cc2)NC(=O)[C@H](Cc2c[nH]c3ccccc23)NC(=O)[C@H](CC(=O)O)NC(=O)[C@H](Cc2ccc(O)cc2)NC(=O)[C@H](Cc2ccccc2)NC(=O)CSC[C@@H](C(=O)NCC(N)=O)NC(=O)[C@H](CO)NC(=O)[C@H](C(C)C)NC1=O [Example 1235] ({CH2CO}-FYDWY[Bip]V[NMeA][Sar]VLVSCG-NH2; thioether N-14) and report it.
6.96

Given the molecule CC(C)C[C@@H]1NC(=O)[C@H](Cc2c[nH]c3ccccc23)NC(=O)[C@H](CC(=O)O)NC(=O)[C@H](Cc2ccc(O)cc2)NC(=O)[C@H](CC(N)=O)NC(=O)CSC[C@@H](C(=O)N[C@@H](C)C(N)=O)NC(=O)[C@H](CO)NC(=O)[C@H](C(C)C)NC(=O)[C@H](CC(C)C)NC(=O)[C@H](CC(N)=O)NC(=O)[C@H]2CCCN2C(=O)[C@H](C)N(C)C(=O)[C@H](C(C)C)NC(=O)[C@H](Cc2ccc(-c3ccccc3)cc2)NC1=O [Example 1031] ({CH2CO}-NYDWL[Bip]V[NMeA][dP]NLVSCA-NH2; thioether N-14) , write its reported pIC50.
7.22

* * *

- assay_system: human PD-1 (Jurkat-PD-1 cells) / PE-labeled human PD-L1-Ig (Homo sapiens, UniProt Q15116)
- Construct: expressed in transfected cells; host or cells: Jurkat cell line over-expressing human PD-1
- Sequence (Q15116 25-288): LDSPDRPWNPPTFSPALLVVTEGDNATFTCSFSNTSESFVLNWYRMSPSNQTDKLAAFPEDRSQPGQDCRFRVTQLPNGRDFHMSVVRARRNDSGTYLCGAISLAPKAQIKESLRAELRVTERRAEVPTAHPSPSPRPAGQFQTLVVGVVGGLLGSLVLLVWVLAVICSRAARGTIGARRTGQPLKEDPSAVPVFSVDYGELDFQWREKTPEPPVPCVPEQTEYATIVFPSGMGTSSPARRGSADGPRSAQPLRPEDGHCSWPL
- assay_remarks: Jurkat-PD-1 Cell Binding High-Content Screening Assay (CBA); Jurkat hPD1-PDL1 assay
- condition_parameters: Jurkat cell line over-expressing human PD-1; PE-labeled PD-L1-Ig 20 nM final; compound incubated 2 hours at 37° C.; read-out: Jurkat HPD1-PDL1 IC50
Positions of bridges follow the written chain, without caps; N, C: chain ends. Non-standard residues stand in square brackets, D forms with d. Residues, ends and D or L forms follow the SMILES beside them. Bip = N[C@@H](Cc1ccc(-c2ccccc2)cc1)C(=O)O; NMeF = CN[C@@H](Cc1ccccc1)C(=O)O; NMeA = CN[C@@H](C)C(=O)O; Sar = CNCC(=O)O
endpoint_label: pIC50
Interpret pIC50 as the negative base-10 log of the concentration measured in mol/L.

>>> measured_value("CC(C)C[C@@H]1NC(=O)[C@H](Cc2c[nH]c3ccccc23)NC(=O)[C@H](CC(=O)O)NC(=O)[C@H](Cc2ccc(O)cc2)NC(=O)[C@H](Cc2ccccc2)NC(=O)CSC[C@@H](C(=O)NCC(N)=O)NC(=O)[C@H](CO)NC(=O)[C@H](C(C)C)NC(=O)[C@H](CC(C)C)NC(=O)[C@H](CCC(N)=O)NC(=O)CN(C)C(=O)[C@H](C)N(C)C(=O)[C@H](C(C)C)NC(=O)[C@H](Cc2ccc(-c3ccccc3)cc2)NC1=O [Example 1072] ({CH2CO}-FYDWL[Bip]V[NMeA][Sar]QLVSCG-NH2; thioether N-14)")
6.72

Retrieve pIC50 measured for CC(C)C[C@@H]1NC(=O)[C@H](CCCNC(=N)N)NC(=O)[C@H](Cc2ccccc2)N(C)C(=O)[C@H](C)N(C)C(=O)[C@H](CCCNC(=N)N)NC(=O)[C@H](Cc2ccc(-c3ccccc3)cc2)NC(=O)[C@H](C(C)C)NC(=O)[C@H](Cc2c[nH]c3ccccc23)NC(=O)[C@H](CC(=O)O)NC(=O)[C@H](Cc2ccc(O)cc2)NC(=O)[C@H](Cc2c[nH]c3ccccc23)NC(=O)CSC[C@@H](C(=O)NCC(N)=O)NC(=O)[C@H](CO)NC(=O)[C@H](C(C)C)NC1=O [Example 1157] ({CH2CO}-WYDWV[Bip]R[NMeA][NMeF]RLVSCG-NH2; thioether N-14) and print it.
6.08
